test: soluble on expression in E. coli; label from the status in PepcDB or PDB records
Observed property: soluble on expression in E. coli

[[record]]
sequence = "MLAVSGLARSTFFDHQRRLDKPDKYADLKEQITTIFHDSNATFGYRRIWRALRNNNTIVNKKVVQRLMREQGLVSKIRRKKYNSYRGTVSHIADNVLGRRFIQDAPNKVWVSDVTEFRVAGTKVYLSPVMDLFDRTILAHTLSTSPNTQLTSRSLADAIAMFSPGKGLIVHTDQGFQYQHASWRTLIKSVGGVQSMSRKGNCYDNAVMENFFGHLKSEMYYGASFTSVDELCQAIDEYILWYNTYRLQERFKGLAPMQYRNQTLAKTLTV"
observed_property = "soluble on expression in E. coli"
result = "not soluble"

[[record]]
sequence = "MGSDKIHHHHHHMKKLLNTLYVTSENSYLGLDGENVVVYDDKNEIGRLPLHNLEAIISFGYRGTSPALMGACADRNISLCYLTPQGKFLARVSGKVKGNVVLRKQQFQSSSEDIKCLEIAKNCILGKVYNSRWVLERAIRDHSMQIDVDKVKKASIKLKEFLDYIQNSQSMNQLRGYEGEAASIYFGVFDELILQQKKDFFFQGRNRRPPLDNVNAMLSFTYTLLTTQITSALEVVGLDPYVGYMHTERPGRVSLSLDLIEELRAVMADRFVLSLINKKIVNGKSFTKKENGAVLMDTDIRKKLLSEWQNKKKEIITHPYLNEKVEWGMVPFVQAMLLARYLRGDLDEYPVFLWK"
observed_property = "soluble on expression in E. coli"
result = "not soluble"

